# TESTED_TARGET: T1, GST-hTEAD1(209–426) (human, UniProt P28347 209-426)
# T1 chain: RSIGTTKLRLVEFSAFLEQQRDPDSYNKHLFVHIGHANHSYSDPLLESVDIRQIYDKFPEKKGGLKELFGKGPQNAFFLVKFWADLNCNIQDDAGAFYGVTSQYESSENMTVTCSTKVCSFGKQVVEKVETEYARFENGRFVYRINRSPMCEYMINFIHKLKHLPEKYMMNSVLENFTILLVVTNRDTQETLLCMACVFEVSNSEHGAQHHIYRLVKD
# PROTOCOL_NOTES: SPR
Bridge positions count the residues as written; N and C are the ends. Ends that are not written are not given here.
MEASURED_PROPERTY: pKd
The meaning of pKd here: minus log10 of the concentration in molar units.

SVDDHFAKALGDTWLQIKAA (lactam (positions not given here); not fully specified (bridges); also: lactam crosslink of 5 atoms, residue identities at the bridge ends not given here) [macrocyclic two-helix motif peptide 4A (lactam 235–250, 5 crosslinking atoms)] | 4.82

Summary for this binder, SVDDHFAKALGDTWLQIKAA (lactam (positions not given here); not fully specified (bridges); also: lactam crosslink of 6 atoms, residue identities at the bridge ends not given here) [macrocyclic two-helix motif peptide 4B (lactam 235–250, 6 crosslinking atoms)] : pKd is 4.85

Summary for this binder, SVEDHFAKALGDTWLQIKAA (lactam (positions not given here); not fully specified (bridges)) [macrocyclic two-helix motif peptide 4D (lactam 235–250, seven-atom crosslink)] : pKd is 5.82

Summary for this binder, SVDDHFAKALGDTWLQIKAA (lactam 3-18) [macrocyclic two-helix motif peptide 4C (lactam 235–250, seven-atom crosslink)] : pKd is 5.32
